# study-system: Bile acid receptor (Homo sapiens)
# experiment-notes: Transactivation of human FXR expressed in human HeLa cells incubated for 24 hrs by luciferase reporter gene assay relative to GW4064
# Format: cell-based
quantity: max activation (%)

{"columns": ["compound", "study-system", "test-result"],
 "data": [
  ["COc1cccc(NC(=O)c2ccccc2NC(=O)c2ccc(C(C)(C)C)cc2)c1", "Bile acid receptor (Homo sapiens)", 13],
  ["Cc1ccc(NC(=O)c2ccccc2NC(=O)c2ccc(C(C)(C)C)cc2)cc1C(=O)O", "Bile acid receptor (Homo sapiens)", 22],
  ["O=C(O)c1cccc(NC(=O)c2ccccc2NC(=O)c2ccc(Br)cc2)c1", "Bile acid receptor (Homo sapiens)", 14.3],
  ["O=C(O)c1cccc(NC(=O)c2ccccc2NC(=O)c2ccc(C(F)(F)F)cc2)c1", "Bile acid receptor (Homo sapiens)", 26],
  ["CC(C)(C)c1ccc(C(=O)Nc2cc(Cl)ccc2C(=O)Nc2cccc(C(=O)O)c2)cc1", "Bile acid receptor (Homo sapiens)", 22]
]}

[P] O=C(O)c1cccc(NC(=O)c2ccccc2NC(=O)c2ccc(C(F)(F)F)c(F)c2)c1
[Q] O=C(O)c1cccc(NC(=O)c2ccc(Cl)cc2NC(=O)c2ccc(C(F)(F)F)cc2)c1
Lab note: record which item had the higher max activation, P or Q . Write down the label attached to your selection.
P

----------
# study-system: Peroxisome proliferator-activated receptor gamma (Homo sapiens)
# Sequence (P37231 whole entry): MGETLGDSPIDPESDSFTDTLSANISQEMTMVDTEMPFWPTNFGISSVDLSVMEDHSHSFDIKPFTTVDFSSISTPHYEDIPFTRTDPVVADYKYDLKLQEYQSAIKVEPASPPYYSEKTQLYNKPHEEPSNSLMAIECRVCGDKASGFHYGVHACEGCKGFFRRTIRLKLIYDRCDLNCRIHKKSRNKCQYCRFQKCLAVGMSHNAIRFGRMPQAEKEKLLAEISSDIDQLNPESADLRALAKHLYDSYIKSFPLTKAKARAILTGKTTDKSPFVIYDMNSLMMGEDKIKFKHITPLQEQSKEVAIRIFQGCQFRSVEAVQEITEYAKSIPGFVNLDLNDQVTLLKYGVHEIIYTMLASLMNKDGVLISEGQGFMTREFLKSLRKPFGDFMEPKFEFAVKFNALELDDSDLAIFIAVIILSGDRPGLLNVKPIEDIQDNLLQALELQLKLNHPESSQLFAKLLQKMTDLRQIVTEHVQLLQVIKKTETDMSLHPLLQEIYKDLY
# experiment-notes: Transactivation of Gal4-tagged PPARgamma ligand binding domain (unknown origin) expressed in COS7 cells measured after overnight incubation by luciferase reporter gene assay
pEC50: −log10 of the molar value.
quantity: pEC50

# example entries with known answers
{"columns": ["compound", "test-result"],
 "data": [
  ["O=C(O)Cc1cccc(NC(=O)c2ccccc2NC(=O)c2ccc(C(F)(F)F)cc2)c1", 5.03],
  ["CC(C)(C)c1ccc(C(=O)Nc2ccccc2C(=O)Nc2cc(C(=O)O)ccc2F)cc1", 5.24],
  ["Cc1ccc(C(=O)O)cc1NC(=O)c1ccccc1NC(=O)c1ccc(C(C)(C)C)cc1", 5.20],
  ["O=C(O)CCCNC(=O)c1ccccc1NC(=O)c1ccc(-c2ccccc2)cc1", 4.89],
  ["O=C(O)c1cccc(NC(=O)c2ccccc2NC(=O)c2cc(C(F)(F)F)cc(C(F)(F)F)c2)c1", 4.96],
  ["COc1ccc(NC(=O)c2ccccc2NC(=O)c2ccc(C(C)(C)C)cc2)cc1C(=O)O", 5.36]
]}

[A] O=C(O)c1cccc(NC(=O)c2ccccc2NC(=O)c2ccc(C(F)(F)F)cc2)c1
[B] CC(C)(C)c1ccc(C(=O)Nc2ccccc2C(=O)Nc2cc(C(=O)O)ccc2Cl)cc1
Hello, I am sorting some records. Could you say if A or B has the smaller pEC50 value? Label of pick, please.
A
(A: 5.07, B: 5.72)
